biological target: GST-VPS29C (human, UniProt F8VXU5 1-214); assay: ITC; 300 μM peptide titrated into 10 μM GST-tagged VPS29C, 25 °C, 50 mM Tris-HCl pH 7.5, 200 mM NaCl, 2 mM β-mercaptoethanol; single-site model; details: both partners purified
readout kind: Kd

[[record]]
binder = "EFASCRLEAVPLEFGDYHPLKPI (also called VPS35L Pro-Leu motif containing peptide) [VPS35L 16 to 38]"
test_value = "> 100 µM"


The origin of these recorded values is paper PMC12260524.
